# System: HUV-EC-C cells (VEGF)
# protocol: HUV-EC-C assay, [3H] thymidine incorporation, VEGF
# Assay type: cell-based, human
# run conditions: Mitogenesis in endothelial cells
assay endpoint: pIC50
On this scale, pIC50 is minus log10 of a concentration expressed in M (mol/L).

• COc1ccc(OC)c(C=C2C(=O)Nc3ccccc32)c1 [SU4793] = 5.18

**Query** Look up pIC50: CN1C(=O)C(=Cc2ccc(Br)cc2)c2ccccc21 [SU4956]
**Result** 5.10

**Query** Same read-out for CN(C)c1ccc(C=C2C(=O)N(C)c3ccccc32)cc1 [SU4952] ?
**Result** 4.59

**Query** Same read-out for CC(=O)Nc1ccc(C=C2C(=O)Nc3ccccc32)cc1 [SU4799, 3-(4-acetamidobenzylidenyl)-2-indolinone] ?
**Result** 4.70

**Query** Same read-out for COc1cccc(C=C2C(=O)Nc3ccccc32)c1OC [SU4794] ?
**Result** 5.32

**Query** Same read-out for CN1C(=O)C(=Cc2ccc(N3CCOCC3)cc2)c2ccccc21 [SU4982] ?
**Result** 4.34

**Query** Same read-out for O=C1Nc2ccccc2C1=Cc1ccc(O)cc1Cl [SU4932] ?
**Result** 5.60

###

Below, each entry is listed with its recorded pIC50.
# target or test system: UniProt:P16092
# Sequence (P16092 22-822, change not shown): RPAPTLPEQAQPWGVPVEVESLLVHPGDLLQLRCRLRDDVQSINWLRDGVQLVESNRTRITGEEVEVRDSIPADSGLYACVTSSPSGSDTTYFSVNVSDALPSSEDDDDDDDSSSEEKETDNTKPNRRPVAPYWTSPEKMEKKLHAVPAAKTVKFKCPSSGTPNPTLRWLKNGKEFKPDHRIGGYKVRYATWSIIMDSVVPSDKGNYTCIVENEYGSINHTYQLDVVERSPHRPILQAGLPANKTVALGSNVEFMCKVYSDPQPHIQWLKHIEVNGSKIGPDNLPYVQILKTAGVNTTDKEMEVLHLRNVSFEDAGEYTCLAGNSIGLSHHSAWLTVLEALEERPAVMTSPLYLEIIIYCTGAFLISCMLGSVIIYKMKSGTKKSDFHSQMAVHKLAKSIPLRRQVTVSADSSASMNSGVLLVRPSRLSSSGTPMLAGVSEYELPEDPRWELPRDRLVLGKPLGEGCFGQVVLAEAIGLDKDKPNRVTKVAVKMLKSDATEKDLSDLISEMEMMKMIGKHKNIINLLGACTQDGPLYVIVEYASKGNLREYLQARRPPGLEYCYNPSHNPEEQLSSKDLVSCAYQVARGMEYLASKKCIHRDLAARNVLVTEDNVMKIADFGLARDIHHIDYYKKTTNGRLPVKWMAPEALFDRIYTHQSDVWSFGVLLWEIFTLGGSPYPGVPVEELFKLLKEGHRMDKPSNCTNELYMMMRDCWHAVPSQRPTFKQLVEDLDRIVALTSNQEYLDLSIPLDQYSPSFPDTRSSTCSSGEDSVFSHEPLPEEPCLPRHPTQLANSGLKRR
# protocol: FGF ligand BrdU incorporation in 3T3/EGFR cells
# run conditions: Mitogenesis in 3T3/EGFR cells
On this scale, pIC50 is minus log10 of a concentration expressed in M (mol/L).

Below, 9 molecules whose answers are already recorded.
- Cc1cnc(C=C2C(=O)Nc3ccccc32)s1: 4.82
- O=C1Nc2ccccc2C1=Cc1ccc(N2CCCC2)cc1: 4.82
- O=C1Nc2ccccc2C1=Cc1c(Br)cnn1Cc1ccc(Cl)cc1: 5.05
- O=C1Nc2ccccc2C1=Cc1ccc(N2CCOCC2)cc1: 5.00
- CCc1ccc(C=C2C(=O)Nc3ccccc32)s1: 4.80
- O=C1Nc2ccccc2C1=Cc1c[nH]cn1: 4.30
- CN(C)c1ccc(C=C2C(=O)Nc3ccc(Cl)cc32)cc1: 5.31
- CCOC(=O)CCc1c(C=C2C(=O)Nc3ccccc32)[nH]c(C(=O)OCC)c1CC(=O)OCC: 4.60
- Cc1cc[nH]c1C=C1C(=O)Nc2ccccc21: 4.60

// below: pIC50 requested for another molecule
**Query** Look up pIC50: `Cc1c(CCC(=O)O)c[nH]c1C=C1C(=O)Nc2ccccc21`
**Result** 4.40

###

# System: 3T3/E/H+TGF-a(T) cells
# protocol: 3T3/E/H+TGF-a(T) cell growth SRB assay
# Assay type: cell-based
# run conditions: SRB readout
assay endpoint: IC50 (µM)
# value in µM; strip the unit string

**Query** Please state recorded IC50 (tested on 3T3/E/H+TGF-a(T) cells) of CN(C)c1ccc(C=C2C(=O)Nc3ccccc32)cc1 [SU4312]
**Result** 36

###

This section lists IC50 readings for PDGFR (Homo sapiens).
# value in µM; strip the unit string

Below, 5 compounds whose answers are already recorded.
• O=C1Nc2ccccc2C1=Cc1c[nH]cn1 = 14.2
• Cc1cnc(C=C2C(=O)Nc3ccccc32)[nH]1 = 55.9
• Cc1cc[nH]c1C=C1C(=O)Nc2ccccc21 = 17
• O=C1Nc2ccccc2C1=Cc1ccc(N2CCCC2)cc1 = 86
• O=C1Nc2ccccc2C1=Cc1ccc(N2CCOCC2)cc1 = 33.1

**Query** Look up IC50: `CN(C)c1ccc(C=C2C(=O)Nc3ccc(Cl)cc32)cc1`
**Result** 7.9

**Query** Same read-out for `COC(=O)CCc1c(C)c[nH]c1C=C1C(=O)Nc2ccccc21` ?
**Result** 53.7

###

# System: HUV-EC-C cells (a-FGF)
# protocol: HUV-EC-C assay, [3H] thymidine incorporation, a-FGF
# Format: cell-based, human
# run conditions: Homo sapiens, HUVEC, Mitogenesis in endothelial cells
assay endpoint: pIC50
On this scale, pIC50 is minus log10 of a concentration expressed in M (mol/L).

**Query** Look up pIC50: O=C1Nc2ccccc2C1=Cc1c[nH]cn1 [SU5473]
**Result** 4.85
